Target: T1, laminin-111 (human, UniProt P25391 18-3075; P07942 22-1786; P11047 34-1609)
T1 construct: Full-length recombinant human laminin isoform (BioLamina); Chain composition is read from the isoform name
Assay: ELISA, GF coated, laminin 10 nM
OBSERVED_PROPERTY: binding result

{"columns": ["BINDER", "RESULT"],
 "data": [
  ["fibroblast growth factor (FGF)-7 (ligand, UniProt P21781 32-194, looked up, mature; Purchased in mature form) CNDMTPEQMATNVNCSSPERHTRSYDYMEGGDIRVRRLFCRTQWYLRIDKRGKVKGTQEMKNNYNIMEIRTVAVGIVAIKGVESEFYLAMNKEGKLYAKKECNEDCNFKELILENHYNTYASAKWTHNGGEMFVALNQKGIPVRGKKTKKEQKTAHFLPMAIT", "binds"],
  ["bone morphogenetic protein (BMP)-3 (ligand, UniProt P12645 363-472, looked up, mature; Purchased in mature form) QWIEPRNCARRYLKVDFADIGWSEWIISPKSFDAYYCSGACQFPMPKSLKPSNHATIQSIVRAVGVVPGIPEPCCVPEKMSSLSILFFDENKNVVLKVYPNMTVESCACR", "binds"]
]}

Measured values drawn from patent US20240092867A1 for this set.
